test: qHTS Assay Multiplex Screening to Identify Dual Action Probes in a Cell Model of Huntington: Cytoprotection (Protease relase); details: PC12 HttQ103 cells, Cytotox-Glo protease release, 40 h; series mostly up to 46.1 µM
Records with an inconclusive call do not appear. Active and inactive are the calls of the source. Calls come from the whole dose curve; as a rule, active = well fitted inhibition curve with a large enough effect; inconclusive = small, poorly fitted or top-dose-only effect, or effect the other way; inactive = flat fitted curve, though single readings scatter.
Could you please pick one outcome from this set? class 1 (active), class 0 (inactive)

Some solved cases for reference:
compound: CC[C@]1(C2=NCCN2)Cc2ccccc2O1
qualitative_label: class 0

compound: C[C@H]1CC[C@@]2(NC1)O[C@@H]1C[C@H]3[C@@H]4CC=C5C[C@@H](O)CC[C@]5(C)[C@@H]4CC[C@]3(C)[C@@H]1[C@@H]2C
qualitative_label: class 0

compound: CCC(C)C(=O)OC1C(O)C2C(CN3CC(C)CCC3[C@]2(C)O)C2C[C@]34O[C@@]5(O)C(OC(=O)C(C)(O)CC)CCC3(C)C5C(OC(C)=O)C(OC(C)=O)C4[C@@]21O (stereo not given in full)
qualitative_label: class 0

compound: O=C1C=C2C=C[C@H]3C[C@@]2(O1)[C@H]1CCCCN31
qualitative_label: class 1

// query Which outcome did this test record for the compound C[C@@]1(CO)[C@H](O)CC[C@@]2(C)[C@H]1CC[C@H]1C[C@@H]3C[C@@]12CC[C@]3(O)CO ?
// result class 0
